This collection of values is drawn from patent US20240368243A1.

Target: … (SEQ ID NO: 1)-HLA-A*02 complex (soluble, biotinylated) (human)
Assay: SPR (BIAcore) or BLI (Octet) per Example 3, biotinylated pHLA immobilised, 25 C
Observation type: Kd (nM)

>>> value("ImmTAC molecule comprising a79 (SEQ ID NO: 7) and b75 (SEQ ID NO: 20) (TCR, part only; not given: anti-CD3 scFv, linker, TCR constants, part only) TCR alpha, part: GDAKTTQPNSMESNEEEPVHLPCNHSTISGTDYIHWYRQLPSQGPEYVIHGLTSNVNNRMASLAIAEDRKSSTLILHRATLRDAAVYYCILILGHSRLGNYIATFGKGTKLSVIP TCR beta, part: DGGITQSPKYLFRKEGQNVTLSCEQNLNHDAMYWYRQDPGQGLRLIYYSQIMGDEQKGDIAEGYSVSREKKESFPLTVTSAQKNPTAFYLCASSWWTGGSAPISFGPGTRLTVT")
0.0577
>>> value("ImmTAC molecule comprising a79 (SEQ ID NO: 7) and b67 (SEQ ID NO: 13) (TCR, part only; not given: anti-CD3 scFv, linker, TCR constants, part only) TCR alpha, part: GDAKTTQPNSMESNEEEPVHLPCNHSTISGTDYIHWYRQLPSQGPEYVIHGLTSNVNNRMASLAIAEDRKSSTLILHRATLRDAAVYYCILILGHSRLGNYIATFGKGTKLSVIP TCR beta, part: DGGITQSPKYLFRKEGQNVTLSCEQNLNHDAMYWYRQDPGQGLRLIYYSQIMGDEQKGDIAEGYSVSREKKESFPLTVTSAQKNPTAFYLCASSWWTSGSAPIRFGPGTRLTVT")
0.047
